Reference for the values: PubChem BioAssay (NCI)

Test system: T-47D breast
procedure details: NCI-60 one-dose screen, 48 h (100 = growth as untreated, 0 = no growth, -100 = all killed)
reported conditions: 10 µM unless noted
This is part of a sample that, as a whole, favours compounds with a hit. Of some 83,000 tested, about 20% had one in any assay.
Answer -1 if growth is under 40%, and 1 if it is 40% or more.

| molecule | tested target | class label |
| --- | --- | --- |
| O=C(Nc1ccccc1)Nc1ccc2cc3ccc(NC(=O)Nc4ccccc4)cc3nc2c1 | T-47D breast | -1 |
| O=C(N/N=C/c1ccc(Oc2ccccc2)cc1)c1cnn2c1NC(c1ccccc1)C2 (stereo not given) | T-47D breast | 1 |
| O=C(c1nc2ccccc2[nH]1)C1C(c2ccc(Br)cc2)C2CC3CCCC[C@H]3N2[C@@]12C(=O)Nc1cc(Cl)ccc12 (stereo not given in full) | T-47D breast | -1 |
| Clc1ccc(-c2ccc(CNCC3CCNCC3)o2)c(-c2ccccc2)c1 | T-47D breast | -1 |
| Cc1nc2ccc(Cl)cn2c1-c1nnc(SCc2ccc([N+](=O)[O-])cc2)o1 | T-47D breast | 1 |
| N#C/C(=C\c1ccccn1)c1nc2cc(Cl)ccc2s1 | T-47D breast | -1 |
| CC(=O)c1cc2c(N)c(C(=O)Nc3cccc4ccncc34)sc2nc1C | T-47D breast | 1 |
| Cn1cc(-c2csc(-c3c[nH]c4ccccc34)n2)c2ccnc(Cl)c21 | T-47D breast | -1 |
| CC1(C)NCCC[C@]2(C)[C@H]3CC(=O)[C@H]4[C@@H]5C[C@](C)(CO)CC[C@]5(C)CC[C@@]4(C)[C@]3(C)CC[C@@H]12 | T-47D breast | 1 |
| COc1ccccc1/C=C1\Oc2cc(OCCN3CCCC3)ccc2C1=O | T-47D breast | 1 |

----------
Test system: UACC-62 melanoma
procedure details: NCI-60 one-dose screen, 48 h
reported conditions: 10 µM unless noted
The panel holds about 83,000 compounds, 20% with a hit somewhere; the sample as a whole holds those more often. The source made the active and inactive calls. The calls were made as follows: active = growth percent below 10; inactive = the rest.
Outcome codes: active, inactive

| molecule | class label |
| --- | --- |
| O=C(/C(=C\c1ccc([N+](=O)[O-])cc1)S(=O)Cc1ccc(F)cc1)c1ccc(F)cc1 (centres undefined) | active |
| C=C(C)[C@@H]1CC[C@]2(C(=O)N3CCN(C)CC3)CC[C@]3(C)[C@H](CC[C@@H]4[C@@]5(C)C/C(=C/c6ccncc6)C(=O)C(C)(C)[C@@H]5CC[C@]43C)[C@@H]12 | inactive |
| Brc1ccc2[nH]cc(-c3cncn3CCc3ccccc3)c2c1 | inactive |
| CC(=O)[C@H]1CCC/C=C/[C@@H]2C[C@H](O)C[C@H]2[C@H](O)/C=C/C(=O)O1 | inactive |
| OC(c1cccc(C(F)(F)F)c1)c1cnccc1NC1CCCCC1 (centres undefined) | inactive |
| CSc1nc2sc3cccc(Cl)c3n2c(=N)c1C#N | inactive |
| O=C1c2ccccc2CCC12OC2c1cn(-c2ccccc2)nc1-c1ccc(Cl)cc1 (centres undefined) | inactive |
| COc1cc(/C=C\C(=O)O)ccc1OCc1ccccc1 | inactive |
| Nc1n[nH]c2cccc(C#Cc3cccc(C(=O)Nc4cc(CN5CCOCC5)cc(C(F)(F)F)c4)c3)c12 | inactive |

----------
Test system: KM12 colon
procedure details: NCI-60 one-dose screen, 48 h
reported conditions: 10 µM unless noted
About 83,000 compounds went through this panel and 20% of them were active in at least one assay; those are over-represented in the sample as a whole. Activity calls are given as the source filed them. The calls were made as follows: active = growth percent below 10; inactive = the rest.
Outcome codes: 1 (yes) = active, 0 (no) = inactive

| molecule | tested target | class label |
| --- | --- | --- |
| CC(Sc1nc2ccccc2c(=O)n1CCc1ccc(S(N)(=O)=O)cc1)C(=O)Nc1ccc(Cl)cc1 (stereo unspecified) | KM12 colon | 0 (no) |
| CCN(CC)c1ccc(C(=O)c2ccccc2)cc1 | KM12 colon | 0 (no) |
| C/C(=N\NC(=O)CSc1nc2ccccc2c(=O)n1CCc1ccc(S(N)(=O)=O)cc1)c1ccccn1 | KM12 colon | 0 (no) |
| COc1cc2nc(-c3ccc(C(F)(F)F)cc3)cc(OCCCN3CCCC3)c2cc1OC | KM12 colon | 0 (no) |
| OCc1cnc2ccccc2c1NC1CCCCCC1 | KM12 colon | 0 (no) |
| Cc1nc2ccc(Cl)cn2c1-c1nnc(SCc2ccc([N+](=O)[O-])cc2)o1 | KM12 colon | 0 (no) |
| COc1cc2c(c(O)c1Br)C(=O)c1c(O)cc(C[C@H](C)O)cc1[C@H]2[C@H]1c2cc(C[C@H](C)O)cc(O)c2C(=O)c2c1cc(OC)c(Br)c2O | KM12 colon | 1 (yes) |
| S=c1cc(S)c2cc(Br)ccc2[nH]1 | KM12 colon | 0 (no) |
| CN1CCN(C(=O)[C@]23CCC(C)(C)C[C@H]2C2=CC[C@@H]4[C@@]5(C)C/C(=C/c6cccnc6)C(=O)C(C)(C)[C@@H]5CC[C@@]4(C)[C@]2(C)CC3)CC1 | KM12 colon | 0 (no) |
| CCOc1ccc(/C=N/Nc2cc(C)nc3ccc(Br)cc23)cc1 | KM12 colon | 0 (no) |
| O=C1CC(=O)OC(c2ccc([N+](=O)[O-])cc2)O1 | KM12 colon | 1 (yes) |
| COc1cc(/C=C\C(=O)O)ccc1OCc1ccccc1 | KM12 colon | 0 (no) |
| COc1cc2c(=O)n(CCN(C)C)c3c4cc5c(cc4ccc3c2cc1OC)OCO5 | KM12 colon | 1 (yes) |
| Cc1ncc(C(=O)Nc2ccc(CN3CCN(C)CC3)c(C(F)(F)F)c2)cc1C#Cc1cnc(N)cc1C#N | KM12 colon | 1 (yes) |
| O=C1Nc2cc(-c3ccc(NS(=O)(=O)c4ccccc4)cc3)ccc2/C1=C/c1ccc[nH]1 | KM12 colon | 0 (no) |
| C[C@H](c1nc2ccc(N)cc2[nH]1)[C@H]1CC[C@H]2[C@@H]3CCC4=CC(=O)CC[C@]4(C)[C@H]3CC[C@]12C | KM12 colon | 0 (no) |
| CNCCn1c(=O)c2cc(OC)c(OC)cc2c2ccc3cc4c(cc3c21)OCO4 | KM12 colon | 1 (yes) |
| COc1cc(C2=NN(C(C)=O)C(c3cc(OC)c(OC)c(OC)c3)C2)ccc1O (stereo unspecified) | KM12 colon | 1 (yes) |
| COc1ccc(/C=C/c2nc(Nc3ccc(S(=O)(=O)NC(C)=O)cc3)c3ccccc3n2)cc1 | KM12 colon | 0 (no) |
| C=C(C)[C@@H]1CC[C@]2(C(=O)N3CCN(C)CC3)CC[C@]3(C)[C@H](CC[C@@H]4[C@@]5(C)C/C(=C/c6ccncc6)C(=O)C(C)(C)[C@@H]5CC[C@]43C)[C@@H]12 | KM12 colon | 0 (no) |
| CCCCNC(=O)Oc1ccc(/C(=C(\C)c2ccccc2)c2ccc(OCCN3CCCCC3)cc2)cc1 | KM12 colon | 0 (no) |
| COc1cc(NC(C)CCCNC(=O)CCC(=O)NCCCNCCCCCCCCNCCCNC(=O)CCC(=O)NCCCC(C)Nc2cc(OC)cc3cccnc23)c2ncccc2c1 (stereo unspecified) | KM12 colon | 0 (no) |
| Cc1c2cc[nH]c(=O)c2c(C)c2c1[nH]c1cc(OCCN3CCN(C)CC3)ccc12 | KM12 colon | 1 (yes) |
| O=C(Nc1ccc(F)cc1)Nc1ccc(NC(=O)c2cc(Cl)nc3ccccc23)cc1 | KM12 colon | 0 (no) |
| NC(=O)CSSCC(N)=O | KM12 colon | 0 (no) |
| O=[N+]([O-])c1ccc(N=Nc2cc(S(=O)(=O)O)c3cccc(S(=O)(=O)O)c3c2O)cc1 | KM12 colon | 0 (no) |
| CN1CCN(C(=O)[C@]23CCC(C)(C)C[C@H]2C2=CC[C@@H]4[C@@]5(C)C/C(=C/c6ccncc6)C(=O)C(C)(C)[C@@H]5CC[C@@]4(C)[C@]2(C)CC3)CC1 | KM12 colon | 0 (no) |
| CCCNC(=O)Oc1ccc(/C(=C(\C)c2ccccc2)c2ccc(OCCCN(C)C)cc2)cc1 | KM12 colon | 0 (no) |
| CCN(c1ccccc1)S(=O)(=O)c1cc([N+](=O)[O-])ccc1Cl | KM12 colon | 0 (no) |
| COc1ccc(C(=O)CC#N)cc1 | KM12 colon | 0 (no) |
| CCOC(=O)CSc1nc2ccccc2c(=O)n1Cc1ccc(S(N)(=O)=O)cc1 | KM12 colon | 0 (no) |
| COC(=O)N[C@H]1CCc2c(Cl)c(OC)c(OC)c(OC)c2-c2ccc(SC)c(=O)cc21 | KM12 colon | 1 (yes) |
| O=C1c2ccc3c4c(ccc(c24)C(=O)N1CCCNCc1ccccc1Cl)C(=O)N(CCCNCc1ccccc1Cl)C3=O | KM12 colon | 1 (yes) |
| O=C(N/N=C/c1ccc(Oc2ccccc2)cc1)c1cnn2c1NC(c1ccccc1)C2 (stereo unspecified) | KM12 colon | 0 (no) |
| CC(Sc1nc2sc3c(c2c(=O)n1-c1ccc(Cl)cc1)CCCC3)C(=O)Nc1nc(-c2ccc(Br)cc2)cs1 (stereo unspecified) | KM12 colon | 0 (no) |
| N#C/C(=C\c1ccc([N+](=O)[O-])s1)c1nc2cc(Br)ccc2s1 | KM12 colon | 0 (no) |
